System: Bovine cardiac myofibrils
Experiment: In vitro model of dose-dependent myofibril ATPase modulation (AC1.4, pyruvate kinase/lactate dehydrogenase-coupled ATPase assay at pCa25)
Type: biochemical
Conditions: concentration at which ATPase activity was 1.4-fold higher than the bottom of the dose curve, mean of a minimum of two independent tests
Method: In vitro Model of Dose-Dependent Myofibril ATPase Modulation: Dose responses were measured using a calcium-buffered, pyruvate kinase and lactate dehydrogenase-coupled ATPase assay containing the following reagents (concentrations expressed are final assay concentrations): Potassium PIPES (12 mM), MgCl2 (2 mM), ATP (1 mM), DTT (1 mM), BSA (0.1 mg/mi), NADH (0.5 mM), PEP (1.5 mM), pyruvate kinase (4 U/ml), lactate dehydrogenase (8 U/ml), and antifoam (90 ppm). […]
Measured AC1.4 accompanies every entry in the list below.
Quick reminder: number only, in µM, skip the unit.

Past entries and their recorded results:
AC1.4 measured on O=C(N[C@@H](c1cc(F)c(Cl)cc1F)C1CC1)[C@H]1C[C@H]2C[C@H]2N1C(=O)c1cccc(S(=O)(=O)C2CC2)c1 [Example 92] = 0.1388

AC1.4 measured on N#CC1CN(S(=O)(=O)N2CCC[C@H](C(=O)N3CCC[C@@H]3C(=O)N[C@@H](c3cc(F)c(Cl)cc3F)C3CC3)C2)C1 [Example 39] = 0.0394

AC1.4 measured on CS(=O)(=O)c1cccc(C(=O)N2C[C@@H](F)C[C@@H]2C(=O)N[C@@H](c2ccc(C(F)(F)F)cc2)C2COC2)c1 [Example 546] = 2.6257

AC1.4 measured on CS(=O)(=O)c1cncc(C(=O)N2CCC(C(F)(F)F)C2C(=O)N[C@@H](c2cc(F)c(C(F)(F)F)cc2F)C2CC2)c1 (stereo partly drawn) [Example 241] = 0.5692

AC1.4 measured on N#CC1CN(S(=O)(=O)N2CCC[C@H](C(=O)N3CCC[C@@H]3C(=O)NCc3c(F)cccc3Cl)C2)C1 [Example 719] = 6.2628

Please examine the following record next.
AC1.4 measured on CS(=O)(=O)c1cccc(C(=O)N2CCC[C@@H]2C(=O)N[C@@H](c2ccc(Cl)c(F)c2)C2COC2)c1 [Example 255] = 0.6167

====

system: Bovine cardiac myofibrils; assay: In vitro model of dose-dependent myofibril ATPase modulation (AC1.4, pyruvate kinase/lactate dehydrogenase-coupled ATPase assay at pCa25); assay type: biochemical; conditions: concentration at which ATPase activity was 1.4-fold higher than the bottom of the dose curve, mean of a minimum of two independent tests
Measured AC1.4 accompanies every entry in the list below.
Quick reminder: number only, in µM, skip the unit.

Past entries and their recorded results:
Lab note: molecule N#CC1CN(S(=O)(=O)N2CCC[C@H](C(=O)N3CC(F)(F)C[C@@H]3C(=O)NCc3ccc(C(F)(F)F)cc3)C2)C1 tested on Bovine cardiac myofibrils; recorded AC1.4 was 0.0289

Lab note: molecule CC[C@@H](NC(=O)[C@H]1CCCN1C(=O)[C@H]1CCCN(S(=O)(=O)N2CC(C#N)C2)C1)c1ccc(C(F)(F)F)cc1 tested on Bovine cardiac myofibrils; recorded AC1.4 was 0.02445

Please examine the following record next.
Lab note: molecule CS(=O)(=O)c1cccc(C(=O)N2C[C@H](O)C[C@@H]2C(=O)N[C@@H](c2ccc(C(F)(F)F)cc2F)C2CC2)c1 tested on Bovine cardiac myofibrils; recorded AC1.4 was 2.23

From: patent US11780826B2
